system: U2OS; assay: Multiplex assay against U2OS; assay type: toxicity, cell-based; details: human, 12 h, 1 µM, compound concentration 1 uM, replicate 2
endpoint: Population Apoptotic (%)
A number alone suffices; assume %.

Solved cases below.
INSERT INTO results (compound, data_value) VALUES
  ('CCOC(=O)CCNc1cc(N2CCc3ccccc3CC2)nc(-c2ccccn2)n1', 45),
  ('C[C@@H](Oc1cc(-n2cnc3ccc(CN4CCN(C)CC4)cc32)sc1C(N)=O)c1ccccc1C(F)(F)F', 12),
  ('N#Cc1cccc(C(=O)Nc2cc(-c3ccccc3)nn2-c2ccccc2)c1', 16),
  ('CC(C)[C@H](CO)Nc1nc(Nc2cccc(Cl)c2)c2ncn(C(C)C)c2n1', 50),
  ('N#CCNC(=O)c1ccc(-c2ccnc(Nc3ccc(N4CCOCC4)cc3)n2)cc1', 60),
  ('Cl.NC[C@@H]1O[C@H](C23CC4CC(CC(C4)C2)C3)Cc2c1ccc(O)c2O', 0);

Challenge: Check the records and state Population Apoptotic (%) for CCCCCNC(=N)N/N=C/c1c[nH]c2ccc(OC)cc12.O=C(O)/C=C\C(=O)O [TEGASEROD MALEATE]
Response given: 20

Challenge: Check the records and state Population Apoptotic (%) for CN(c1cc(C(F)(F)F)nc(OCCC(=O)O)n1)c1cccc2c1CCC2
Response given: 0

Challenge: Check the records and state Population Apoptotic (%) for CC[C@H](Nc1ncnc2[nH]cnc12)c1nc2cccc(F)c2c(=O)n1-c1ccccc1
Response given: 14

====

system: Fibroblast; assay: Incucyte cell viability with human fibroblast; format: toxicity, cell-based; conditions: 18 h, 10 µM, compound concentration 10 uM, replicate number 1, timepoint 18 hours; also: filed as whole numbers so only -1 and 0 and 1 occur
endpoint: Growth Rate

Solved cases below.
INSERT INTO assay_data (molecule, endpoint, data_value) VALUES
  ('CC(C)(N)C(=O)N[C@H](COCc1ccccc1)C(=O)N1CCC2(CC1)CN(S(C)(=O)=O)c1ccccc12.CS(=O)(=O)O [IBUTAMOREN MESYLATE]', 'Growth Rate', 0),
  ('Cc1cc(OCC(=O)O)cc(C)c1Cc1ccc(O)c(C(C)C)c1', 'Growth Rate', 1),
  ('CC(C)(C)c1ccc(C(=O)Nc2cn3cc(-n4ccnc4)ccc3n2)cc1.Cl.Cl', 'Growth Rate', 1),
  ('Oc1cccc(-c2nc(N3CCOCC3)c3oc4ncccc4c3n2)c1', 'Growth Rate', 0);

Could you now consider this next molecule?
Challenge: Check the records and state Growth Rate for Cc1c(Nc2ccc(S(=O)(=O)N3CCN(C)CC3)cc2F)nc2ccc(-c3cnn(C4CC4)c3)cn2c1=O
Response given: 1

====

tested on: Fibroblast; assay: Multiplex assay against human fibroblast; assay type: toxicity, cell-based; conditions: 24 h, 1 µM, compound concentration 1 uM, replicate 1
endpoint: Population Pyknosed Nuclei (%)
A number alone suffices; assume %.

INSERT INTO measurements (compound, endpoint, data_value) VALUES
  ('CC(C)C[C@H](NC(=O)[C@H](Cc1ccccc1)NC(=O)CNC(=O)CNC(=O)[C@@H](N)Cc1ccc(O)cc1)C(=O)O [ENKEPHALIN]', 'Population Pyknosed Nuclei (%)', 26),
  ('NC(=O)c1ccc2nc(-c3ccc(C4(N)CCC4)cc3)c(-c3ccccc3)n2n1 [BAY-1125976]', 'Population Pyknosed Nuclei (%)', 10),
  ('Cc1c(P(=S)(c2ccccc2)c2ccccc2)n2ccccc2[n+]1C/C=C/c1ccccc1.[Br-]', 'Population Pyknosed Nuclei (%)', 19),
  ('CCOC(=O)CCNc1cc(N2CCc3ccccc3CC2)nc(-c2ccccn2)n1', 'Population Pyknosed Nuclei (%)', 13);

Challenge: Check the records and state Population Pyknosed Nuclei (%) for CCCc1cc(C)[nH]c(=O)c1CNC(=O)c1cc(-c2ccc(N3CCN(C(C)C)CC3)nc2)cc2c1cnn2C(C)C
Response given: 22
